Reference source: patent US20250313631A1

# assay_system: T1, recombinant mouse VISTA (His-tagged) (mouse, UniProt Q9D659 33-191)
# T1 construct: also called murine VISTA; mVISTA
# T1 sequence (looked up): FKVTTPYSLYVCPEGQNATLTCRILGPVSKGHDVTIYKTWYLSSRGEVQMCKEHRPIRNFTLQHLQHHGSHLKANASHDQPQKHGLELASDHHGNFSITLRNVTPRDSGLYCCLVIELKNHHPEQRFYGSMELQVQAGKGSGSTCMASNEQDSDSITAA
# experiment_notes: BLI (Octet), 1:1 global fit, His-tagged mouse VISTA captured
Answer each item with its documented Kd.

Here is how some binders turned out for Kd.
binder	Kd
anti-VISTA clone V4-C30 IgG1 (antibody, V domains shown) VH: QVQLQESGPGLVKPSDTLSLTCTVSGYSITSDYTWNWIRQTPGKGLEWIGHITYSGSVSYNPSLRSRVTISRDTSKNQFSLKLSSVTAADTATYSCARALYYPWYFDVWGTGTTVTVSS VL: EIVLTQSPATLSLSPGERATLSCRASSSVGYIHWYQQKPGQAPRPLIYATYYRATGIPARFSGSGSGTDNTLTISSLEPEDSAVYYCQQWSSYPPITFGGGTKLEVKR	< 1 pM
anti-VISTA clone V4-C24 IgG1 (antibody, V domains shown) VH: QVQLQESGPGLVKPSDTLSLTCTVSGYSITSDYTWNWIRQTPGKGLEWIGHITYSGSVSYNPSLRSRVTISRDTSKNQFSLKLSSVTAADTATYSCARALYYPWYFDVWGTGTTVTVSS VL: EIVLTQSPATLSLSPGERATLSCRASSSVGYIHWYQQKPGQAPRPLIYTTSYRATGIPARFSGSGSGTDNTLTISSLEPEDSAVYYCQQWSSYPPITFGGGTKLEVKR	< 1 pM

# input Which Kd reading was recorded for the binder anti-VISTA clone V4-C31 IgG1 (antibody, V domains shown) VH: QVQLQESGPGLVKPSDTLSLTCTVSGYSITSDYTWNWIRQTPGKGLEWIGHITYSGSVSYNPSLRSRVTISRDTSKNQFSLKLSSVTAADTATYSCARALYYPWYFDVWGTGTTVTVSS VL: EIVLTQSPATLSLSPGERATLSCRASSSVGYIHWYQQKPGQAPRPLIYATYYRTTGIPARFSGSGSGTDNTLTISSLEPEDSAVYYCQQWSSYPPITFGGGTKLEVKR ?
# output < 1 pM
